- System: U2OS
- test-name: Incucyte cell viability with U2OS; further: filed as whole numbers so only -1 and 0 and 1 occur
- Type: toxicity, cell-based
- experimental-parameters: human, 24 h, 10 µM, compound concentration 10 uM, replicate number 1, timepoint 24 hours
Please respond with reported Growth Rate for every item in the list.
Number, no unit, nothing else.

Give recorded Growth Rate. CC[C@H](C)C(=O)O[C@H]1C[C@@H](C)C=C2C=C[C@H](C)[C@H](CC[C@@H]3C[C@@H](O)CC(=O)O3)[C@H]21
0

Give recorded Growth Rate. CN1CCC[C@@H]1CCO[C@](C)(c1ccccc1)c1ccc(Cl)cc1.O=C(O)/C=C/C(=O)O [CLEMASTINE FUMARATE]
0

Give recorded Growth Rate. COc1cc2c(cc1OCCCN1CCCC1)N=C(N)C21CCC1
1

Give recorded Growth Rate. C=CC(=O)Nc1cc2c(Nc3ccc(F)c(Cl)c3)ncnc2cc1OCCCN1CCOCC1.Cl.Cl [CANERTINIB DIHYDROCHLORIDE]
0

Give recorded Growth Rate. COc1cc2nccc(Oc3ccc(NC(=O)Nc4cc(C)on4)c(Cl)c3)c2cc1OC.O
0

Give recorded Growth Rate. CC(=O)C1=C(C)N(c2cccc(C(F)(F)F)c2)C(=O)N[C@H]1c1ccc(C#N)nc1
0

Give recorded Growth Rate. CC1=C(C#N)C(c2ccc3[nH]nc(C)c3c2)C(C#N)=C(C)N1
0

Give recorded Growth Rate. O=C(NCCN1CCOCC1)c1ccc2c(c1)C(=O)c1ccc(Nc3ccc(F)c(NC(=O)c4ccccc4)c3)cc1CC2
0

Give recorded Growth Rate. CC(=O)OCC(=O)[C@@]1(O)CC[C@H]2[C@@H]3CCC4=CC(=O)CC[C@]4(C)[C@@]3(F)[C@@H](O)C[C@@]21C [FLUDROCORTISONE ACETATE]
1

Give recorded Growth Rate. Cn1c(-c2csc(C3CCN(CC4=NC5N=CC=CC5N4)CC3)n2)nc2ccccc21 (stereo not drawn)
1

Give recorded Growth Rate. Cc1c(C(=O)NC2CCCCC2)sc2nc3ccc(N)cc3n12.Cl
1

Give recorded Growth Rate. CC(C)(O)CNc1ncc(-c2ccnc(Nc3ccnc(Cl)c3)n2)c(CC2CC2)n1
0

Give recorded Growth Rate. Cn1cncc1[C@@](O)(COc1ccc(C#N)cc1-c1ccc(OC(F)(F)F)cc1)c1ccc(C#N)cc1
0

Give recorded Growth Rate. OC1(c2ccc(Cl)cc2)CCN(Cc2c[nH]c3ccccc23)CC1
0

Give recorded Growth Rate. CC(C)C(=O)Nc1n[nH]c2cc(-c3cccc(NS(=O)(=O)C4CC4)c3)ccc12
0

Give recorded Growth Rate. CN1CCCC(n2nc(Cc3ccc(Cl)cc3)c3ccccc3c2=O)CC1.Cl (stereo not drawn) [AZELASTINE HYDROCHLORIDE]
1

Give recorded Growth Rate. CC[C@@H]1[C@H](F)C(=O)N[C@@H]1COc1nccc2cc(C(N)=O)c(OC)cc12
0

Give recorded Growth Rate. CN(c1ccnc(CNc2nc(Nc3ccc4c(c3)CC(=O)N4)ncc2C(F)(F)F)n1)S(C)(=O)=O
0

Give recorded Growth Rate. C=C1/C(=C\C=C2/CCC[C@]3(C)[C@@H]([C@H](C)/C=C/C=C/C(O)(CC)CC)CC[C@@H]23)C[C@@H](O)C[C@@H]1O
1

Give recorded Growth Rate. Cc1nc(-c2cn3c(n2)-c2ccc(-c4cnn(C(C)(C)C(N)=O)c4)cc2OCC3)n(C(C)C)n1
0

Give recorded Growth Rate. O=C(O)c1ccc(-c2coc3ncc(-c4ccccc4)cc23)cc1Cl
1

Give recorded Growth Rate. C[C@@H](NCCCc1cccc(C(F)(F)F)c1)c1cccc2ccccc12.Cl [CINACALCET HYDROCHLORIDE]
0

Give recorded Growth Rate. C=CC(=O)Nc1ccc2ncnc(Nc3ccc(OCc4cccc(F)c4)c(Cl)c3)c2c1.Cc1ccc(S(=O)(=O)O)cc1
0

Give recorded Growth Rate. Cc1cccc([C@H](C)c2c[nH]cn2)c1C.Cl [DEXMEDETOMIDINE HYDROCHLORIDE]
1

Give recorded Growth Rate. CN(C)C(=O)/C(C#N)=C/c1ccc(-c2nc3cnc4[nH]ccc4c3n2C2CCCCC2)o1
0

Give recorded Growth Rate. C[C@@H](c1cccc(CN)c1)n1cc(Cl)cc(C(N)=O)c1=N.Cl
1

Give recorded Growth Rate. COc1ccc(CNC(=O)c2cc(-c3cncc(Cl)c3)cnc2-c2ccccn2)nc1OC
1

Give recorded Growth Rate. O=C(O)[C@@H]1[C@@H](Cn2nnc3ccccc3c2=O)CC[C@H]1C(=O)c1ccc(OCCC2CCOCC2)cc1
1

Give recorded Growth Rate. N#Cc1ccc(NC(=O)Nc2ccccc2Br)c2nn[nH]c12
1

Give recorded Growth Rate. N#CC(Cc1ccc(O)cc1)c1ccc(O)cc1 (stereo not drawn)
1

Give recorded Growth Rate. O=C(c1ccc(F)cc1)N1CC(COc2ccc(Br)cc2)(C(=O)O)C1
1

Give recorded Growth Rate. CCN(CC)CCCCNc1ncc2cc(-c3cc(OC)cc(OC)c3)c(NC(=O)NC(C)(C)C)nc2n1
0

Give recorded Growth Rate. O=C(NCc1ncc(C(F)(F)F)cc1Cl)c1ccc2c(c1)C1(CCS(=O)(=O)CC1)[C@H](C1CC1)N2S(=O)(=O)c1ccc(F)cc1
0
